Taken from paper PMC4757881.

- subject of test: CB2 receptor (hCB2) (Homo sapiens)
- Sequence (P34972 whole entry): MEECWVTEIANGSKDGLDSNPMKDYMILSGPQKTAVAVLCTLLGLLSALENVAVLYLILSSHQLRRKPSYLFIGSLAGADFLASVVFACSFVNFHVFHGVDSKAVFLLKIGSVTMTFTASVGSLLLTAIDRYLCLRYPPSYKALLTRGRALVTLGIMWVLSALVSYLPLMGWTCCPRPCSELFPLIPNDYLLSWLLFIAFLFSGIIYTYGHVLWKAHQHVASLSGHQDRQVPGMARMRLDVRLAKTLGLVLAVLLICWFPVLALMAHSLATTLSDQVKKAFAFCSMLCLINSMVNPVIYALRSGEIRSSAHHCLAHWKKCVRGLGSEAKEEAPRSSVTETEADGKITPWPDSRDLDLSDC
experimental readout: pKi
Schema: pKi number; meaning minus log10 of the concentration expressed in molar units.

// map "C=C(C)[C@@H]1CCC(C)=C[C@H]1C1=C(O)C(=O)C(CCCCC)=C(NCc2ccccc2)C1=O" to recorded pKi (system: CB2 receptor (hCB2) (Homo sapiens))
6.77

----------
- subject of test: PPARγ (Homo sapiens, UniProt P37231)
- Sequence (P37231 whole entry): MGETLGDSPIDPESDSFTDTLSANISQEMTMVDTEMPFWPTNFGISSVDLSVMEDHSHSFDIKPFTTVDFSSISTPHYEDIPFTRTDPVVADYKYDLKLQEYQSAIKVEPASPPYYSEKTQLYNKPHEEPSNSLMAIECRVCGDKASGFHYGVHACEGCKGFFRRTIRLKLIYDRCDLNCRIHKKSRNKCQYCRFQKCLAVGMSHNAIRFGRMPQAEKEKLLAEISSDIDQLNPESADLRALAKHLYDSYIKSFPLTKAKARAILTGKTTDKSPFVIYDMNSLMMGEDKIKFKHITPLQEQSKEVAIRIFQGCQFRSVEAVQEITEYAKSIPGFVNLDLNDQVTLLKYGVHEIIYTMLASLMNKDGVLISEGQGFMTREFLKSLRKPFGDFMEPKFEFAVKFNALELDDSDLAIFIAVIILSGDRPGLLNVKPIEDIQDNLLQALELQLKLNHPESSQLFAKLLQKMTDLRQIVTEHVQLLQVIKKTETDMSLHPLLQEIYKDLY
experimental readout: pIC50
Schema: pIC50 number; meaning minus log10 of the concentration expressed in molar units.

// map "C=C(C)[C@@H]1CCC(C)=C[C@H]1C1=C(O)C(=O)C(CCCCC)=C(NCc2ccccc2)C1=O" to recorded pIC50 (system: PPARγ (Homo sapiens, UniProt P37231))
5.77
